B1: Histone H1t, residues 44 to 112; numbered along this chain, P22492 (parent)
chain: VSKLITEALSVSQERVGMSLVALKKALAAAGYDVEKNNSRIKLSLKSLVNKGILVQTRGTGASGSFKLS

- Variants of: B1
- Experimental Details: abundance fitness (aPCA) (normalised: wild type 0, dead -1); higher = more abundant; growth selection in yeast, the domain comes from the species named
- Condition: Homo sapiens

[
  {
    "Changes": "G64R",
    "abundance fitness": -0.026
  },
  {
    "Changes": "G31W",
    "abundance fitness": -0.387
  },
  {
    "Changes": "S47I",
    "abundance fitness": -0.587
  },
  {
    "Changes": "L48N",
    "abundance fitness": -0.775
  },
  {
    "Changes": "A62H",
    "abundance fitness": -0.054
  },
  {
    "Changes": "L68W",
    "abundance fitness": -0.121
  },
  {
    "Changes": "T60G",
    "abundance fitness": -0.033
  },
  {
    "Changes": "S69I",
    "abundance fitness": -0.156
  },
  {
    "Changes": "K67N",
    "abundance fitness": -0.091
  },
  {
    "Changes": "G52Q",
    "abundance fitness": -0.3
  },
  {
    "Changes": "T60L",
    "abundance fitness": -0.102
  },
  {
    "Changes": "L23M",
    "abundance fitness": -0.226
  },
  {
    "Changes": "T57F",
    "abundance fitness": -0.14
  },
  {
    "Changes": "V34A",
    "abundance fitness": -0.171
  },
  {
    "Changes": "G64Y",
    "abundance fitness": -0.051
  },
  {
    "Changes": "A26T",
    "abundance fitness": -0.106
  },
  {
    "Changes": "I53H",
    "abundance fitness": -0.095
  },
  {
    "Changes": "T57H",
    "abundance fitness": -0.001
  },
  {
    "Changes": "T57K",
    "abundance fitness": -0.011
  },
  {
    "Changes": "R58K",
    "abundance fitness": 0.155
  },
  {
    "Changes": "K36G",
    "abundance fitness": -0.251
  },
  {
    "Changes": "Y32F",
    "abundance fitness": -0.072
  },
  {
    "Changes": "G31Q",
    "abundance fitness": -0.268
  },
  {
    "Changes": "G64M",
    "abundance fitness": 0.165
  },
  {
    "Changes": "L68Q",
    "abundance fitness": -0.327
  },
  {
    "Changes": "N37T",
    "abundance fitness": -0.522
  },
  {
    "Changes": "V49Q",
    "abundance fitness": -0.323
  },
  {
    "Changes": "K46Q",
    "abundance fitness": -0.226
  },
  {
    "Changes": "L23E",
    "abundance fitness": -0.47
  },
  {
    "Changes": "A26D",
    "abundance fitness": -0.954
  },
  {
    "Changes": "S47C",
    "abundance fitness": 0.036
  },
  {
    "Changes": "S47F",
    "abundance fitness": -0.41
  },
  {
    "Changes": "K51N",
    "abundance fitness": -0.081
  },
  {
    "Changes": "L27S",
    "abundance fitness": -0.746
  },
  {
    "Changes": "I53T",
    "abundance fitness": -0.082
  },
  {
    "Changes": "G61I",
    "abundance fitness": -0.171
  },
  {
    "Changes": "S63H",
    "abundance fitness": 0.025
  },
  {
    "Changes": "E35F",
    "abundance fitness": -0.307
  },
  {
    "Changes": "N38I",
    "abundance fitness": -0.162
  },
  {
    "Changes": "R40Q",
    "abundance fitness": 0.024
  },
  {
    "Changes": "L54H",
    "abundance fitness": -0.325
  },
  {
    "Changes": "K25H",
    "abundance fitness": -0.325
  },
  {
    "Changes": "L27V",
    "abundance fitness": -0.202
  },
  {
    "Changes": "K46H",
    "abundance fitness": -0.35
  },
  {
    "Changes": "I41V",
    "abundance fitness": -0.308
  },
  {
    "Changes": "N37L",
    "abundance fitness": -0.061
  },
  {
    "Changes": "K67L",
    "abundance fitness": -0.158
  },
  {
    "Changes": "T60I",
    "abundance fitness": -0.115
  },
  {
    "Changes": "Y32C",
    "abundance fitness": -0.391
  },
  {
    "Changes": "I41E",
    "abundance fitness": -0.813
  },
  {
    "Changes": "S65E",
    "abundance fitness": 0.175
  },
  {
    "Changes": "N50I",
    "abundance fitness": -0.398
  },
  {
    "Changes": "K42Y",
    "abundance fitness": -0.138
  },
  {
    "Changes": "S69N",
    "abundance fitness": -0.055
  },
  {
    "Changes": "N50V",
    "abundance fitness": -0.388
  },
  {
    "Changes": "G61Q",
    "abundance fitness": -0.081
  },
  {
    "Changes": "K36N",
    "abundance fitness": -0.019
  },
  {
    "Changes": "V55P",
    "abundance fitness": -0.163
  },
  {
    "Changes": "K67V",
    "abundance fitness": -0.109
  },
  {
    "Changes": "E35T",
    "abundance fitness": -0.061
  },
  {
    "Changes": "K25N",
    "abundance fitness": -0.171
  },
  {
    "Changes": "K42E",
    "abundance fitness": 0.182
  },
  {
    "Changes": "L45H",
    "abundance fitness": -1.2
  },
  {
    "Changes": "K46M",
    "abundance fitness": -0.23
  },
  {
    "Changes": "S44V",
    "abundance fitness": 0.16
  },
  {
    "Changes": "I53V",
    "abundance fitness": -0.025
  },
  {
    "Changes": "V55W",
    "abundance fitness": -0.297
  },
  {
    "Changes": "G64A",
    "abundance fitness": 0.196
  },
  {
    "Changes": "K51E",
    "abundance fitness": 0.016
  },
  {
    "Changes": "V21Y",
    "abundance fitness": -0.207
  },
  {
    "Changes": "E35I",
    "abundance fitness": -0.123
  },
  {
    "Changes": "K24S",
    "abundance fitness": -0.656
  },
  {
    "Changes": "N37A",
    "abundance fitness": 0.244
  },
  {
    "Changes": "V49N",
    "abundance fitness": -0.54
  },
  {
    "Changes": "L23I",
    "abundance fitness": -0.087
  },
  {
    "Changes": "G64C",
    "abundance fitness": 0.275
  },
  {
    "Changes": "A62T",
    "abundance fitness": -0.006
  },
  {
    "Changes": "A26R",
    "abundance fitness": -0.415
  },
  {
    "Changes": "G61Y",
    "abundance fitness": -0.218
  },
  {
    "Changes": "E35H",
    "abundance fitness": -0.137
  },
  {
    "Changes": "A28Y",
    "abundance fitness": -0.124
  },
  {
    "Changes": "G64F",
    "abundance fitness": -0.067
  },
  {
    "Changes": "Y32H",
    "abundance fitness": -0.052
  },
  {
    "Changes": "I41F",
    "abundance fitness": -0.055
  },
  {
    "Changes": "L48S",
    "abundance fitness": -0.801
  },
  {
    "Changes": "A28N",
    "abundance fitness": -0.18
  },
  {
    "Changes": "L43E",
    "abundance fitness": 0.229
  },
  {
    "Changes": "T60V",
    "abundance fitness": -0.038
  },
  {
    "Changes": "S39A",
    "abundance fitness": -0.005
  },
  {
    "Changes": "S69F",
    "abundance fitness": -0.058
  },
  {
    "Changes": "V55T",
    "abundance fitness": 0.062
  }
]
